target: PKCθ (Homo sapiens); construct: His6; experiment: In vitro enzyme assay (time-resolved fluorescence kinase assay), PKCθ, 100 μM ATP
Sequence (Q04759 whole entry): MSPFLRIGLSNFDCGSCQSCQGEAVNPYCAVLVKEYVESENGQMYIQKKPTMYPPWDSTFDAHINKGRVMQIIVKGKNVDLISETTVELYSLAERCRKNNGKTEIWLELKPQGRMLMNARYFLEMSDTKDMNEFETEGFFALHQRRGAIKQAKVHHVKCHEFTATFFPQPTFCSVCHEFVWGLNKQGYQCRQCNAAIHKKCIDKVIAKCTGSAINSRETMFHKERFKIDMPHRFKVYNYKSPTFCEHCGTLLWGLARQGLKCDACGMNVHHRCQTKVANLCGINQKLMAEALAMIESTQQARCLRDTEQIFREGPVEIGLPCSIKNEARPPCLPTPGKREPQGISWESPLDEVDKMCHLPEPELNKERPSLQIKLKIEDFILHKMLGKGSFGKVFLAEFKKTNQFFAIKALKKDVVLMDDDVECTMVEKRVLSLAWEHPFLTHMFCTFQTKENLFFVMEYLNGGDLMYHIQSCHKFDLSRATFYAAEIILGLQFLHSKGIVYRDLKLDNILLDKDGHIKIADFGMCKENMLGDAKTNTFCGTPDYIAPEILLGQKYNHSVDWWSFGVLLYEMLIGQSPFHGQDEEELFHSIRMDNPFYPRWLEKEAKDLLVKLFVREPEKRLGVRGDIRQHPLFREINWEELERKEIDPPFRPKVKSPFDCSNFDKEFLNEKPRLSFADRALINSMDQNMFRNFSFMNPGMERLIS
Counter-ions that a name gives are not always drawn.
Attribute: IC50
experimental.endpoint: IC50

- compound: "CC1C(=O)NN=C2COc3cc(-c4ccccc4F)c(N4CC5CCC4CN5C)cc3N21 (stereo not drawn)"
  subject.of.test: "PKCθ (Homo sapiens)"
  experimental.endpoint: "IC50"
  val: "< 0.25 µM"
- compound: "COc1cccc(-c2cc3c(cc2[C@@H]2CCN(C)C[C@@H]2C)N2C(=NNC(=O)[C@H]2C)CO3)c1F"
  subject.of.test: "PKCθ (Homo sapiens)"
  experimental.endpoint: "IC50"
  val: "< 0.25 µM"
- compound: "CC1C(=O)NN=C2COc3cc(-c4ccoc4)c(N(C)C4(C)CN(C)C4)cc3N21 (stereo not drawn)"
  subject.of.test: "PKCθ (Homo sapiens)"
  experimental.endpoint: "IC50"
  val: "< 0.25 µM"
- compound: "C[C@@H]1C(=O)NN=C2COc3cc([C@@H](C)C(F)(F)F)c(NC4CNC4)cc3N21"
  subject.of.test: "PKCθ (Homo sapiens)"
  experimental.endpoint: "IC50"
  val: "< 0.25 µM"
- compound: "CC(C)c1cc2c(cc1[C@@H]1CCN(C)C[C@@H]1C)N1C(=NNC(=O)[C@H]1C)CO2"
  subject.of.test: "PKCθ (Homo sapiens)"
  experimental.endpoint: "IC50"
  val: "< 0.25 µM"
- compound: "Cc1cc2c(cc1NC1CN(C)C1)N1C(=NNC(=O)C1C)CO2 (stereo not drawn)"
  subject.of.test: "PKCθ (Homo sapiens)"
  experimental.endpoint: "IC50"
  val: "< 0.25 µM"
- compound: "CC1C(=O)NN=C2COc3cc(Nc4ccccc4)c(NC4CNC4)cc3N21 (stereo not drawn)"
  subject.of.test: "PKCθ (Homo sapiens)"
  experimental.endpoint: "IC50"
  val: "< 0.25 µM"
- compound: "CC1C(=O)NN=C2COc3cc(-c4ccco4)c(N(C)C4(C)CN(C)C4)cc3N21 (stereo not drawn)"
  subject.of.test: "PKCθ (Homo sapiens)"
  experimental.endpoint: "IC50"
  val: "< 0.25 µM"
- compound: "CC1C(=O)NN=C2COc3cc(-c4ccc(F)cc4F)c(NC4CNC4)cc3N21 (racemic)"
  subject.of.test: "PKCθ (Homo sapiens)"
  experimental.endpoint: "IC50"
  val: "< 0.25 µM"
- compound: "C[C@@H]1CN(C)CC[C@@H]1c1cc2c(cc1-c1ccccc1CO)OCC1=NNC(=O)[C@@H](C)N12"
  subject.of.test: "PKCθ (Homo sapiens)"
  experimental.endpoint: "IC50"
  val: "< 0.25 µM"
- compound: "CC1C(=O)NN=C2COc3ccc(C(C)C4(C)CNC4)cc3N21 (stereo not drawn)"
  subject.of.test: "PKCθ (Homo sapiens)"
  experimental.endpoint: "IC50"
  val: "< 0.25 µM"
- compound: "CC1C(=O)NN=C2COc3cc(C(C)C(F)(F)F)c(NC4CNC4)cc3N21 (stereo not drawn) [Example 112, trifluoroacetic acid salt]"
  subject.of.test: "PKCθ (Homo sapiens)"
  experimental.endpoint: "IC50"
  val: "1 to 10 µM"
- compound: "COc1ccccc1-c1cc2c(cc1NC1CNC1)N1C(=NNC(=O)C1C)CO2 (racemic)"
  subject.of.test: "PKCθ (Homo sapiens)"
  experimental.endpoint: "IC50"
  val: "< 0.25 µM"
- compound: "CC1C(=O)NN=C2COc3cc(-c4ccc(Cl)c(Cl)c4)c(NC4CNC4)cc3N21 (racemic)"
  subject.of.test: "PKCθ (Homo sapiens)"
  experimental.endpoint: "IC50"
  val: "< 0.25 µM"
- compound: "C[C@@H]1C(=O)NN=C2COc3cc(-c4ccccc4Cl)c(NC4CNC4)cc3N21"
  subject.of.test: "PKCθ (Homo sapiens)"
  experimental.endpoint: "IC50"
  val: "< 0.25 µM"

---

biological target: PKCθ (Homo sapiens); construct: His6; test: In vitro enzyme assay (time-resolved fluorescence kinase assay), PKCθ, 100 μM ATP
pIC50: −log10 of the molar value.
Attribute: pIC50

- compound: "CC1C(=O)NN=C2COc3cc(F)c(OC4(C)CNC4)cc3N21 (stereo not drawn)"
  subject.of.test: "PKCθ (Homo sapiens)"
  pIC50: "> 6.60"
- compound: "CC(C)c1cc2c(cc1OC1(C)CNC1)N1C(=NNC(=O)[C@H]1C)CO2 (single isomer, unassigned)"
  subject.of.test: "PKCθ (Homo sapiens)"
  pIC50: "6.00 to 6.60"
- compound: "C[C@@H]1C(=O)NN=C2COc3cc(C(F)(F)F)c([C@H](C)C4(C)CNC4)cc3N21 (single isomer, unassigned)"
  subject.of.test: "PKCθ (Homo sapiens)"
  pIC50: "5.00 to 6.00"
- compound: "C[C@@H]1C(=O)NN=C2COc3ccc([C@H](C)C4CNC4)cc3N21"
  subject.of.test: "PKCθ (Homo sapiens)"
  pIC50: "> 6.60"
- compound: "C[C@@H]1C(=O)NN=C2COc3cc(-c4c(N5CCNCC5)ccc(Cl)c4Cl)ccc3N21"
  subject.of.test: "PKCθ (Homo sapiens)"
  pIC50: "> 6.60"
- compound: "C[C@@H]1C(=O)NN=C2COc3cc(-c4ccc(Cl)cc4)c(NC4CNC4)cc3N21"
  subject.of.test: "PKCθ (Homo sapiens)"
  pIC50: "> 6.60"
- compound: "Cc1cc2c(cc1NC1(C)CNC1)N1C(=NNC(=O)C1C)CO2 (stereo not drawn)"
  subject.of.test: "PKCθ (Homo sapiens)"
  pIC50: "5.00 to 6.00"
- compound: "CC(C)c1cc2c(cc1OC1(C)CNC1)N1C(=NNC(=O)C1C)CO2 (stereo not drawn)"
  subject.of.test: "PKCθ (Homo sapiens)"
  pIC50: "> 6.60"
- compound: "C[C@@H]1C(=O)NN=C2COc3cc(-c4ccccc4F)c(N4CCN[C@@H](C)C4)cc3N21"
  subject.of.test: "PKCθ (Homo sapiens)"
  pIC50: "> 6.60"
- compound: "C[C@@H]1C(=O)NN=C2COc3cc(-c4ccccc4F)c(N(C)C4(C)CN(C(=O)CO)C4)cc3N21"
  subject.of.test: "PKCθ (Homo sapiens)"
  pIC50: "> 6.60"
- compound: "C[C@@H]1C(=O)NN=C2COc3cc(-c4ccc(Cl)cc4Cl)c(NC4CNC4)cc3N21"
  subject.of.test: "PKCθ (Homo sapiens)"
  pIC50: "> 6.60"
- compound: "C[C@@H]1C(=O)NN=C2COc3cc(-c4ccccc4F)c(N(C)C4(C)CN(C5COC5)C4)cc3N21"
  subject.of.test: "PKCθ (Homo sapiens)"
  pIC50: "> 6.60"
- compound: "CC1C(=O)NN=C2COc3cc(-c4cccc5ccccc45)c(NC4CNC4)cc3N21 (racemic)"
  subject.of.test: "PKCθ (Homo sapiens)"
  pIC50: "> 6.60"
- compound: "C[C@@H]1C(=O)NN=C2COc3cc(-c4ccccc4F)c(NC4CNC4)cc3N21"
  subject.of.test: "PKCθ (Homo sapiens)"
  pIC50: "> 6.60"
- compound: "C[C@H]1C(=O)NN=C2COc3cc4ccn([C@@]5(C)CCNC5)c4cc3N21"
  subject.of.test: "PKCθ (Homo sapiens)"
  pIC50: "> 6.60"

Ref: patent US9115151B2
